Target: Cdk5/p25 (Homo sapiens)
Assay: Cyclin-Dependent Kinase 5 High Throughput Screening (cdk5-HTS) Assay
Format: biochemical
Details: high throughput screen
pIC50: −log10 of the molar value.
value_type: pIC50

                                   molecule            system_tested  recorded_measurement
0  CC(C)n1c(=O)ccc2cnc(Nc3ccc(Cl)c(C(F)(F)F)c3)nc21 [Example 421]  Cdk5/p25 (Homo sapiens)                  7.08
1  CCCCn1c(=O)ccc2cnc(Nc3cccc(I)c3)nc21 [Example 375]  Cdk5/p25 (Homo sapiens)                  7.07
2  CCCn1c(=O)ccc2cnc(Nc3ccc4c(c3)C(C)C(C)N4)nc21 (stereo not shown) [Example 356]  Cdk5/p25 (Homo sapiens)                  7.21
3  CCC(CC)n1c(=O)ccc2cnc(Nc3ccc4[nH]ccc4c3)nc21 [Example 492]  Cdk5/p25 (Homo sapiens)                  7.07

====

Target: cdk2/cyclinA (Homo sapiens, UniProt P24941)
Assay: Cyclin-Dependent Kinase Assay cdk2/cyclinA
Conditions: cdk2/A IC50
pIC50: −log10 of the molar value.
value_type: pIC50

                                    molecule  recorded_measurement
 0  CCC(C)n1c(=O)ccc2cnc(Nc3ccc(O)c(Cl)c3)nc21 (centres unmarked)                  7.40
 1  O=c1ccc2cnc(Nc3cc([N+](=O)[O-])ccc3F)nc2n1CC1CC1                  6.28
 2  CCCCn1c(=O)ccc2cnc(Nc3ccc(I)c(Cl)c3)nc21                  5.85
 3  CCCCn1c(=O)ccc2cnc(Nc3ccc(S(N)(=O)=O)cc3)nc21                  7.47
 4  O=c1ccc2cnc(Nc3cc(Cl)c(O)c(Cl)c3)nc2n1CC(F)(F)F                  6.01
 5  CCCn1c(=O)ccc2cnc(Nc3ccc(F)c(C(F)(F)F)c3)nc21                  5.96
 6  O=c1ccc2cnc(Nc3ccc4[nH]ncc4c3)nc2n1C1CCCC1                  7.50
 7  CCC(C)n1c(=O)ccc2cnc(Nc3cccc(C(F)(F)F)c3)nc21 (centres unmarked)                  6.43
 8  CCC(CC)n1c(=O)ccc2cnc(Nc3ccc(F)c(Cl)c3)nc21                  6.38
 9  O=c1[nH]c2cc(Nc3ncc4ccc(=O)n(C5CCCC5)c4n3)ccc2o1                  6.83
10  O=c1ccc2cnc(Nc3ccc4[nH]nnc4c3)nc2n1CC1CC1                  6.93

====

The entries below come with measured pIC50 values attached.
Target: cdk4/D (Homo sapiens, UniProt P11802)
Sequence (P11802 whole entry): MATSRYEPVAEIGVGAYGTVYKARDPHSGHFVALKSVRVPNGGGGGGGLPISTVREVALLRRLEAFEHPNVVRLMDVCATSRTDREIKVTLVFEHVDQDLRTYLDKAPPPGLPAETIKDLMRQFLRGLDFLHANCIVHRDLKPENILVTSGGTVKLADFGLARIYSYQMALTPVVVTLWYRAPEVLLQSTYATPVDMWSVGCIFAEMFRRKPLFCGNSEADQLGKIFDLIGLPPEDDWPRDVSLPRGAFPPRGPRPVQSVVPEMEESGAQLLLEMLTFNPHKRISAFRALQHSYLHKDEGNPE
Sequence (P24385 whole entry, further chain): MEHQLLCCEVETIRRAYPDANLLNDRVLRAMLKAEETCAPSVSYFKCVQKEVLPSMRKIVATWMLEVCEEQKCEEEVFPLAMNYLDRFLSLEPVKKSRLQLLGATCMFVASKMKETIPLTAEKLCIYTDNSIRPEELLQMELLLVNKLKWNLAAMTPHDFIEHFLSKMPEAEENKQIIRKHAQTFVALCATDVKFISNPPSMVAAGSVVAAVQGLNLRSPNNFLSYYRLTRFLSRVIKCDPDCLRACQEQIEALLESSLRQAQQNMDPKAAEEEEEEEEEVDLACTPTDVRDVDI
Assay: Cyclin-Dependent Kinase 4 (cdk4) Assay
Assay type: biochemical
Conditions: Table 1; read-out: cdk4/D IC50
pIC50: −log10 of the molar value.
value_type: pIC50

>>> df
                                   molecule  recorded_measurement
0  O=c1ccc2cnc(Nc3ccc(-n4cccc4)cc3)nc2n1C1CCCCC1                  6.56
1  CC1CCCN(c2ccc(Nc3ncc4ccc(=O)n(C5CCCCC5)c4n3)cc2)C1 (stereo not shown)                  6.57
2  O=c1ccc2cnc(Nc3ccc(N4CCCCC4CO)cc3)nc2n1C1CC2CCC1C2 (stereo not shown)                  7.94
3  O=c1ccc2cnc(Nc3ccc(N4CCCCC4)cc3)nc2n1[C@H]1C[C@H]2CC[C@@H]1C2 (relative stereo)                  5.55
